Recorded values, source ChEMBL document CHEMBL1121923.

- Tested on: P388
- PROCEDURE_SUMMARY: Concentration required for 50% inhibition of incorporation of labeled uridine by P388 cells for the synthesis of RNA (in vitro)
- Format: functional
- APPLIED_CONDITIONS: Mus musculus, read-out: ED50 (the source's name)
ENDPOINT: pEC50
# pEC50: negative log10 of molar concentration; output just the value

Cc1c2oc3c(C)ccc(C(=O)N[C@@H]4C(=O)N[C@H](C(C)C)C(=O)N5CCC[C@H]5C(=O)N(C)CC(=O)N(C)[C@@H](C(C)C)C(=O)O[C@@H]4C)c3nc-2c(C(=O)N[C@@H]2C(=O)N[C@H](C(C)C)C(=O)N3CCC[C@H]3C(=O)N(C)CC(=O)N(C)[C@@H](C(C)C)C(=O)O[C@@H]2C)c(NCCCCCN)c1=O	6.34

Enquiry: Report pEC50 for `Cc1c2oc3c(C)c(O)c(N)c(C(=O)N[C@@H]4C(=O)N[C@H](C(C)C)C(=O)N5CCC[C@H]5C(=O)N(C)CC(=O)N(C)[C@@H](C(C)C)C(=O)O[C@@H]4C)c3nc-2c(C(=O)N[C@@H]2C(=O)N[C@H](C(C)C)C(=O)N3CCC[C@H]3C(=O)N(C)CC(=O)N(C)[C@@H](C(C)C)C(=O)O[C@@H]2C)c/c1=N/Cc1ccco1` please.
Return: 6.09

Enquiry: Report pEC50 for `Cc1c2oc3c(C)c(OC(=O)C45CC6CC(CC(C6)C4)C5)cc(C(=O)N[C@@H]4C(=O)N[C@H](C(C)C)C(=O)N5CCC[C@H]5C(=O)N(C)CC(=O)N(C)[C@@H](C(C)C)C(=O)O[C@@H]4C)c3nc-2c(C(=O)N[C@@H]2C(=O)N[C@H](C(C)C)C(=O)N3CCC[C@H]3C(=O)N(C)CC(=O)N(C)[C@@H](C(C)C)C(=O)O[C@@H]2C)c(N)c1=O` please.
Return: 6.75
